Recorded values, source paper PMC10974084.

Task for the reader: assign each of the following molecules its reported pIC50.
# Tested on: A2780 ovarian cancer cells
# PROTOCOL: SRB cytotoxicity assay, A2780
# Type: cell-based
# MEASUREMENT CONDITIONS: Homo sapiens, A2780; SRB assay, 96 h incubation, mean ± SD; read-out: IC50 A2780
Answers are plain numbers, as −log10 of the molar value.

C=C(C)C1CCC2(C(=O)NCCS(N)(=O)=O)CCC3(C)C(CCC4C5(C)CCC(OC(C)=O)C(C)(C)C5CCC43C)C12 (stereo not drawn): 4.98

We next turn to a different molecule, shown below.
Exercise: Reported pIC50 for C=C(C)C1CCC2(COC(=O)CCC(=O)NCCS(N)(=O)=O)CCC3(C)C(CCC4C5(C)CCC(OC(C)=O)C(C)(C)C5CCC43C)C12 (stereo not drawn) : what is it?
Key: 4.94

---

Task for the reader: assign each of the following compounds its reported melting point.

C=C(C)C1CCC2(C(=O)NCCOCCO)CCC3(C)C(CCC4C5(C)CCC(OC(C)=O)C(C)(C)C5CCC43C)C12 (stereo not shown): 205 °C
C=C(C)C1CCC2(C(=O)NCCOCCOC(=O)CCC(=O)O)CCC3(C)C(CCC4C5(C)CCC(OC(C)=O)C(C)(C)C5CCC43C)C12 (stereo not shown): 78 to 82 °C

Here are 2 compounds. What values of melting point were reported for them?
1. C=C(C)C1CCC2(COC(=O)CCC(=O)O)CCC3(C)C(CCC4C5(C)CCC(OC(C)=O)C(C)(C)C5CCC43C)C12 (stereo not shown)
2. C=C(C)C1CCC2(C(=O)NCCOCCOC(=O)CCC(=O)Nc3nnc(S(N)(=O)=O)s3)CCC3(C)C(CCC4C5(C)CCC(OC(C)=O)C(C)(C)C5CCC43C)C12 (stereo not shown)

Key:
1: 122 to 125 °C; 2: 92 to 94 °C

---

# System: A2780 ovarian cancer cells
# PROTOCOL: SRB cytotoxicity assay, A2780
# Assay type: cell-based
# MEASUREMENT CONDITIONS: Homo sapiens, A2780; SRB assay, 96 h incubation, mean ± SD; read-out: IC50 A2780
# Experimental: All of the compounds were dissolved in dimethyl sulfoxide (DMSO) to achieve a 20 mM stock solution. Cells were seeded in cell culture flasks 24 h before treatment. The treatment was performed for 24 h. The cytotoxicity of the drugs was determined in 2D tumor models using sulforhodamine B (SRB) assays. Treatment started 24 h after seeding the tumor cells in 96-well plates as previously described.
PROPERTY: pIC50
Numbers only, as −log10 of the molar value.

Some compounds with known pIC50 results, for comparison:
C=C(C)[C@@H]1CC[C@]2(C(=O)O)CC[C@]3(C)[C@H](CC[C@@H]4[C@@]5(C)CC[C@H](O)C(C)(C)[C@@H]5CC[C@]43C)[C@@H]12: 4.90
C=C(C)C1CCC2(C(=O)NCCOCCOC(=O)CCC(=O)O)CCC3(C)C(CCC4C5(C)CCC(OC(C)=O)C(C)(C)C5CCC43C)C12 (stereo not drawn): 4.91
C=C(C)C1CCC2(COC(=O)CCC(=O)O)CCC3(C)C(CCC4C5(C)CCC(OC(C)=O)C(C)(C)C5CCC43C)C12 (stereo not drawn): 4.91
C=C(C)C1CCC2(C(=O)NCCOCCO)CCC3(C)C(CCC4C5(C)CCC(OC(C)=O)C(C)(C)C5CCC43C)C12 (stereo not drawn): 5.02

We next turn to a different compound, shown below.
Exercise: Reported pIC50 for C=C(C)C1CCC2(C(=O)NCCOCCOC(=O)CCC(=O)Nc3nnc(S(N)(=O)=O)s3)CCC3(C)C(CCC4C5(C)CCC(OC(C)=O)C(C)(C)C5CCC43C)C12 (stereo not drawn) : what is it?
Key: 4.45
